Just for reference, PubChem BioAssay AID248 is where these values come from.

Test system: L1210 leukemia ip in BDF1 mice, survival T/C
ASSAY COMMENT: NCI In Vivo Anticancer Drug Screen. Data for tumor model L1210 Leukemia (intraperitoneal) in B6D2F1 (BDF1) mice
CONDITIONS USED: endpoint: mean survival time; dose: 100.0 mg/kg/injection; schedule: Q04DX003 (ip); vehicle: Klucel (hydroxypropylcellulose) (HPC); higher = longer survival
Inconclusive results and toxic doses are left out.
MEASURED ATTRIBUTE: T/C

- MOLECULE: "CCCCOP(=O)(OCCCC)C(c1ccccc1)(c1ccccc1)c1ccccc1"
  RESULT: "91 % of control"
- MOLECULE: "CCOC(=O)CSC(=S)N(C)C"
  RESULT: "101 % of control"
- MOLECULE: "O=C1C(Br)=CC(Br)=C/C1=N/Br"
  RESULT: "97 % of control"
- MOLECULE: "CC(=O)Nc1ccc(C=Nc2ccc3c(c2)Cc2ccccc2-3)cc1"
  RESULT: "94 % of control"
- MOLECULE: "N#CC1(Cc2ccc(Br)cc2)c2cc(OC(=O)c3ccccc3)ccc2C=CN1C(=O)c1ccccc1 (stereo unspecified)"
  RESULT: "96 % of control"
- MOLECULE: "CC(=O)OC1=C(c2c(C)cc(C)c(Br)c2C)C(=O)C(OC(C)=O)=C(c2c(C)cc(C)c(Br)c2C)C1=O"
  RESULT: "104 % of control"
- MOLECULE: "N#CC(C#N)=Cc1c2ccccc2cc2ccccc12"
  RESULT: "94 % of control"
- MOLECULE: "NC1(C(=O)O)Cc2ccccc2B(O)OC1=O (stereo unspecified)"
  RESULT: "98 % of control"
- MOLECULE: "O=C(NC1CCCCC1)OC/C=C\\c1ccccc1"
  RESULT: "101 % of control"
- MOLECULE: "CCOC(=O)C1C(=O)C(CN(CCCl)CCCl)C(=O)C(C(=O)OCC)C1c1ccc(O)cc1 (stereo unspecified)"
  RESULT: "106 % of control"
- MOLECULE: "ClC12CCCC3CCCC(CCC1)C32 (stereo unspecified)"
  RESULT: "103 % of control"

* * *

Each entry below lists one item and its recorded T/C value.
Test system: L1210 leukemia ip in BDF1 mice, survival T/C
ASSAY COMMENT: NCI In Vivo Anticancer Drug Screen. Data for tumor model L1210 Leukemia (intraperitoneal) in B6D2F1 (BDF1) mice
CONDITIONS USED: endpoint: mean survival time; dose: 100.0 mg/kg/injection; schedule: Q01DX009 (ip); vehicle: Klucel (hydroxypropylcellulose) (HPC); higher = longer survival
Inconclusive results and toxic doses are left out.

- MOLECULE: "NN(CC1=COc2ccccc2O1)Cc1ccccc1"
  T/C: "96 % of control"
- MOLECULE: "Cc1ccc(NC(=O)Oc2c(C)cccc2C)c([N+](=O)[O-])c1"
  T/C: "87 % of control"
- MOLECULE: "O=C(Nc1ccccc1O)c1ccc([N+](=O)[O-])cc1"
  T/C: "100 % of control"
- MOLECULE: "CNC(=O)Nc1c(C)cccc1C"
  T/C: "93 % of control"
- MOLECULE: "CCCCCCCCCCCCCCCCCC(=O)Oc1ccc(OCc2ccccc2)cc1"
  T/C: "105 % of control"
- MOLECULE: "O=C(Nc1ccc(Nc2ccncc2)cc1)c1ccc(Nc2ccnc3ccc([N+](=O)[O-])cc23)cc1"
  T/C: "92 % of control"
- MOLECULE: "O=[N+]([O-])c1cccc(S(=O)(=O)OCC2CO2)c1 (centres undefined)"
  T/C: "98 % of control"
- MOLECULE: "CC(C)(CC(=O)O)SCCSC(C)(C)CC(=O)O"
  T/C: "97 % of control"
- MOLECULE: "CCCCNC(=O)Nc1ccc(OC)cc1OC"
  T/C: "101 % of control"
- MOLECULE: "CCOC(CNC(=O)c1cccc([N+](=O)[O-])c1)OCC"
  T/C: "98 % of control"
- MOLECULE: "CCOC(=O)C1C(=O)C(CN(CCCl)CCCl)C(=O)C(C(=O)OCC)C1c1ccc(O)cc1 (centres undefined)"
  T/C: "113 % of control"
- MOLECULE: "Oc1ccc(Br)cc1-c1nc2cc(Cl)c(Cl)cc2nc1-c1cc(Br)ccc1O"
  T/C: "94 % of control"
- MOLECULE: "CCOC(=O)c1[nH]c2c(c1CC(CC)[N+](=O)[O-])CCCC2 (centres undefined)"
  T/C: "96 % of control"
- MOLECULE: "CC1(C)c2cc3ccc(Cl)cc3nc2-c2ccccc2C1(C)O (centres undefined)"
  T/C: "89 % of control"
- MOLECULE: "O=C(C(c1ccccn1)=P(c1ccccc1)(c1ccccc1)c1ccccc1)c1ccc([N+](=O)[O-])cc1"
  T/C: "91 % of control"
- MOLECULE: "O=c1ccccn1C/C(=N\\O)c1ccccc1"
  T/C: "98 % of control"
- MOLECULE: "Cc1cc2ccccc2c2cc3ccccc3cc12"
  T/C: "104 % of control"
- MOLECULE: "COc1cccc(CNc2ccc(C)cc2C)c1OC"
  T/C: "100 % of control"
- MOLECULE: "CC(=O)c1ccc(OS(=O)(=O)c2ccc([N+](=O)[O-])cc2)cc1"
  T/C: "90 % of control"
- MOLECULE: "COc1ccc(Cl)cc1NC(=O)Oc1cc(C)c(Cl)c(C)c1"
  T/C: "104 % of control"
- MOLECULE: "CC12C=CC(CC1)C2OC(=O)c1ccccc1C(=O)O (centres undefined)"
  T/C: "95 % of control"
- MOLECULE: "O=Cc1cc(C(=O)c2ccccn2)c2cc(Cl)cc(Cl)c2n1"
  T/C: "107 % of control"
- MOLECULE: "O=C(O)CN1C(=O)OC(c2ccccc2)C1=O (centres undefined)"
  T/C: "101 % of control"
- MOLECULE: "Cc1cc(C(C)C)cc(C(C)C)c1"
  T/C: "96 % of control"

* * *

System: L1210 leukemia ip in BDF1 mice, survival T/C
ASSAY COMMENT: NCI In Vivo Anticancer Drug Screen. Data for tumor model L1210 Leukemia (intraperitoneal) in B6D2F1 (BDF1) mice
CONDITIONS USED: endpoint: mean survival time; dose: 200.0 mg/kg/injection; schedule: Q01DX001 (ip); vehicle: carboxymethylcellulose (CMC); higher = longer survival
Toxic doses and inconclusive results are not listed.
MEASURED ATTRIBUTE: T/C

- COMPOUND: "CC(CS)CS"
  SYSTEM NAME: "L1210 leukemia ip in BDF1 mice, survival T/C"
  MEASURED ATTRIBUTE: "T/C"
  RESULT: "95 % of control"
- COMPOUND: "O=C(O)c1ccc(C(Cl)C(Cl)(Cl)Cl)cc1O (stereo not given)"
  SYSTEM NAME: "L1210 leukemia ip in BDF1 mice, survival T/C"
  MEASURED ATTRIBUTE: "T/C"
  RESULT: "94 % of control"
- COMPOUND: "CCOP(=O)(NC(C)(C)C)OCC"
  SYSTEM NAME: "L1210 leukemia ip in BDF1 mice, survival T/C"
  MEASURED ATTRIBUTE: "T/C"
  RESULT: "105 % of control"
- COMPOUND: "O=C1OCC(C(=O)c2ccccc2)C1=Nc1ccccc1O (stereo not given)"
  SYSTEM NAME: "L1210 leukemia ip in BDF1 mice, survival T/C"
  MEASURED ATTRIBUTE: "T/C"
  RESULT: "100 % of control"
- COMPOUND: "Cc1cc(N(CCCl)CCCl)ccc1C=Nc1ccc(-c2csc(-c3ccccc3)n2)c(Cl)c1"
  SYSTEM NAME: "L1210 leukemia ip in BDF1 mice, survival T/C"
  MEASURED ATTRIBUTE: "T/C"
  RESULT: "95 % of control"

* * *

System: L1210 leukemia ip in BDF1 mice, survival T/C
ASSAY COMMENT: NCI In Vivo Anticancer Drug Screen. Data for tumor model L1210 Leukemia (intraperitoneal) in B6D2F1 (BDF1) mice
CONDITIONS USED: endpoint: mean survival time; dose: 40.0 mg/kg/injection; schedule: Q01DX001 (ip); vehicle: saline; higher = longer survival
Inconclusive results and toxic doses are left out.
Entries and their T/C

- COMPOUND: "CC[N+]1(C2CCCCC2)CCCCC1"
  T/C: "91 % of control"
- COMPOUND: "O=C1NC(=O)C(F)C(O)N1 (configuration not stated)"
  T/C: "101 % of control"
- COMPOUND: "COCCNC(=O)N(CCOC)N=O"
  T/C: "104 % of control"
- COMPOUND: "CCC(=O)C(CCCN(C)C)(c1ccccc1)c1ccccc1"
  T/C: "98 % of control"
- COMPOUND: "O=C(O)C(O)C(O)C(=O)O.[Cu+2] (configuration not stated)"
  T/C: "101 % of control"
- COMPOUND: "COC(=O)C1=COC(C)C(C=O)C1CC(=O)O (configuration not stated)"
  T/C: "118 % of control"
- COMPOUND: "CCCC(=O)OCC1OC(n2cnc3c(=S)nc[nH]c32)C(OC(=O)CCC)C1OC(=O)CCC (configuration not stated)"
  T/C: "121 % of control"
